Tested on: Saccharomyces cerevisiae
Assay: protein stability index of tFT-peptide fusion (C-terminal peptide) (PSI (0-1 scale)); higher = more stable (slower turnover)
Settings: genetic background: wild type; temperature: 30 C
Rule: protein stability index of 0.7 or more gives t; anything lower gives f.

CAWLCVRFAGVG = f
RSSSGANLQTTL = f
AYWWSLGRALGC = t
DLSAGPPFLLIR = f
FLFADVSSPSSI = t
IDLLTRKVDLFN = f
GAWGFVWLGVGC = f
SGPRVCPGMHWQ = f
LSPPPPPLPPPL = f
CVGFCLGKCTMS = t

Data request: Hi team, for APPRPPPPSPIP , is the recorded protein stability index at or above 0.7?
Data returned: t

Data request: And what about the sequence VPVSNLCERTAG ?
Data returned: f

Data request: // next record CRPVHVNLPFYF
Data returned: f

Data request: Here is the next sequence: HSPSSLPRLRPQ
Data returned: f

Data request: Note, next up: PPRPPPHPAPLS
Data returned: t

Data request: Also, APSPLLPPHSPP please.
Data returned: f

Data request: Field entry: PARGPTPHIVPR
Data returned: f

###

Tested on: Saccharomyces cerevisiae
Test: protein stability index of tFT-peptide fusion (C-terminal peptide) (PSI (0-1 scale)); higher = more stable (slower turnover)
Conditions: genetic background: wild type; temperature: 30 C
observable: protein stability index
Form field (numeric): enter value without unit.

Reference set, count: 3
LSYSFGCEFLWL = 0.674
FALPPSLLLLSA = 0.501
VKRVYQRFHVKK = 0.666

Data request: # protein stability index lookup, item PLPSPASPSPPP
Data returned: 0.67

Data request: HTEYQGAGIPDE ?
Data returned: 0.752

Data request: Likewise for GDLYWLRNAMSL ?
Data returned: 0.731

Data request: What about this sequence? PPLFPYRPPQPT
Data returned: 0.697

Data request: Item: TQRIEKEPTKKY
Data returned: 0.703

Data request: Would you kindly repeat that for VRRFNVLLYVRG ?
Data returned: 0.425

###

A collection of sequences and their measured protein stability index
Test system: Saccharomyces cerevisiae
Assay: protein stability index of tFT-peptide fusion (C-terminal peptide) (PSI (0-1 scale)); higher = more stable (slower turnover)
Settings: genetic background: das1 deletion; temperature: 30 C
In your answer, state the number alone without any accompanying words.

Recorded results for 3 sequences are shown here.
RTANVVGLDVPT [FMC1 C-terminal 12 aa] = 0.683
WQLVDNYESGYE [YGL194C-A C-terminal 12 aa] = 0.709
KERSHHFVRNMN [YKL102C C-terminal 12 aa] = 0.707

Data request: protein stability index for LKDNLAKPKTRR [VBA2 C-terminal 12 aa] ?
Data returned: 0.715

Data request: Follow-up entry: ETLAKLREQGLM [TOM70 C-terminal 12 aa]
Data returned: 0.68

Data request: # repeat for VHKFGWSLSFSP [POR2 C-terminal 12 aa]
Data returned: 0.701

Data request: Similarly, EGPRGETIVERF [YJL047C-A C-terminal 12 aa] ?
Data returned: 0.698

Data request: Next sequence: SALNKIKADEKK [ACO1 C-terminal 12 aa]
Data returned: 0.689

###

System: Saccharomyces cerevisiae
Assay: protein stability index of tFT-peptide fusion in deletion strain of DAS1 (PSI (0-1 scale)); higher = more stable (slower turnover)
observable: protein stability index
Form field (numeric): enter value without unit.

Sample answers from the record:
KKHKKGQKQKIP = 0.638
LDVYLSCVACIN = 0.231
RLIQPNPVQFLN = 0.576
SLIQPLPVQFLN = 0.618
CTLCGYKFRTNN = 0.72
PDKRNHLIKLRN = 0.672

Data request: Kindly state the measured protein stability index obtained for PDKRNHLIKLLE with Saccharomyces cerevisiae.
Data returned: 0.606

Data request: Query RLIQPLPVQFLK next
Data returned: 0.881

Data request: Try this sequence too: NKILRQKMNHQN
Data returned: 0.701

Data request: And what about the sequence PSLAASFWRWVG ?
Data returned: 0.706

Data request: Query VRGAVSGWRLVG next
Data returned: 0.683

Data request: // repeat for PDKRNCLIKLLN and report
Data returned: 0.586

Data request: Now the same for LKALRQKMNHQN
Data returned: 0.672
